- assay: endothelial E-selectin expression blockers – imaging, HUVEC, immunofluorescence, MLSMR starter and 10KST1 sets, primary screen (AID 487);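 also: 100% = median nuclei count of all wells on the same plate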
- run.parameters: HUVEC TNFalpha-induced E-selectin immunofluorescence imaging, at 2 µM; measured here: cell number, toxicity
For each record, write down the corresponding nuclei count.
Hi! Could you send only the number? It should be in %, unit omitted.

Exercise: Look up nuclei count for this compound: Cc1ccc(CSc2nc3c(c(=O)[nH]2)C(c2ccncc2)C2=C(CCCC2=O)N3)cc1 (stereo not drawn)
Solution: 87.2

Exercise: Look up nuclei count for this compound: CCOC(=O)C1=C(CC)Nc2ccccc2N=C1NC(=O)Nc1ccccc1OC
Solution: 119

Exercise: Look up nuclei count for this compound: COc1ccc(N2CCN(C(=O)CSc3ccccc3N)CC2)cc1
Solution: 106

Exercise: Look up nuclei count for this compound: C=CCSc1nc2c(c(=O)[nH]c(=O)n2C)n1C(C)C
Solution: 97.6

Exercise: Look up nuclei count for this compound: COc1cccc(NC(=O)Nc2cccs2)c1
Solution: 115

Exercise: Look up nuclei count for this compound: COc1ccc(-c2noc(COc3ccc4ccccc4c3Br)n2)cc1OC
Solution: 104

Exercise: Look up nuclei count for this compound: CC(c1nnc(SCC(=O)Nc2sccc2C#N)n1-c1ccc(Cl)cc1)N(C)C (stereo not drawn)
Solution: 143

Exercise: Look up nuclei count for this compound: O=C(CSc1nc2ccccc2n1CC(=O)N1CCCC1)Nc1nccs1
Solution: 131

Exercise: Look up nuclei count for this compound: O=C(O)CC(C(=O)OCCOc1ccccc1)N1CCOCC1 (stereo not drawn)
Solution: 109

Exercise: Look up nuclei count for this compound: CCCc1cc(=O)[nH]c(=S)[nH]1
Solution: 126

Exercise: Look up nuclei count for this compound: C[N+]1=C2CCCCCN2C(O)(c2ccccc2)C1 (stereo not drawn)
Solution: 130

Exercise: Look up nuclei count for this compound: COc1ccc(N(CC(=O)NC2CCCC2)C(=O)Cn2nnc(-c3ccc(C)cc3)n2)cc1
Solution: 106

Exercise: Look up nuclei count for this compound: COCCn1c(NCc2ccc(C)cc2)nc2c1c(=O)[nH]c(=O)n2C
Solution: 110

Exercise: Look up nuclei count for this compound: O=C(COC(=O)c1ccco1)NCc1cccs1
Solution: 88.2

Exercise: Look up nuclei count for this compound: O=C(Nc1cccc(C(=O)N2CCOCC2)c1)c1cccnc1
Solution: 116

Exercise: Look up nuclei count for this compound: Cc1cc(C)nc(N2CCCC(C(=O)Nc3ccc4c(c3)OCO4)C2)n1 (stereo not drawn)
Solution: 95.8

Exercise: Look up nuclei count for this compound: Cc1ccc(OCC(=O)N2CCN(C(=O)CCC3CCCC3)CC2)cc1
Solution: 108

Exercise: Look up nuclei count for this compound: Cc1ccc(S(=O)(=O)NCCNC(=O)c2ccccc2)cc1
Solution: 93.6

Exercise: Look up nuclei count for this compound: Nc1nonc1-c1noc(-c2ccccc2Br)n1
Solution: 112

Exercise: Look up nuclei count for this compound: CC1=C(C#N)C(c2ccc3ncccc3c2)C(C#N)=C(C)N1
Solution: 110

Exercise: Look up nuclei count for this compound: COc1ccccc1C(=O)NCCc1nc2ccccc2n1C
Solution: 101

Exercise: Look up nuclei count for this compound: COc1ccc2cnn(-c3ccccc3)c(=O)c2c1OC
Solution: 109

Exercise: Look up nuclei count for this compound: CC1(C)CC(=O)C(C2=NC(C)(C)Cc3ccccc32)=C(O)C1
Solution: 99.8

Exercise: Look up nuclei count for this compound: O=S(=O)(NCC1CCCO1)c1ccc(S(=O)(=O)N2CCc3ccccc3C2)cc1 (stereo not drawn)
Solution: 140

Exercise: Look up nuclei count for this compound: Cc1ccc(OCC(=O)NCCN2CCCC2)cc1
Solution: 102

Exercise: Look up nuclei count for this compound: COc1ccc(CCNS(=O)(=O)c2ccc3c(c2)OCCO3)cc1
Solution: 106

Exercise: Look up nuclei count for this compound: COC(=O)Nc1nc2ccc(C(=O)c3ccccc3)cc2[nH]1
Solution: 112

Exercise: Look up nuclei count for this compound: Cc1nn(-c2ccccc2)c(C)c1C(=O)OCC(=O)c1c(N)n(CC(C)C)c(=O)n(C)c1=O
Solution: 127

---

- test.target: Muscarinic acetylcholine receptor M4 (Homo sapiens)
- assay: M4-linked GIRK flux change, two-sided – cell-based, HEK293 M4/GIRK, thallium flux, BTC-AM, M4 allosteric agonist project, primary screen (AID 625);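 also: thallium influx through GIRK channels coupled to M4 in HEK293 cells with BTC-AM dye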
- run.parameters: at 10 µM, actives lie on both sides
The source made the active and inactive calls.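 Rule for the calls: active = fluorescence slope after compound addition differing from the mean of all tested samples at 99.7% confidence, mostly higher but some lower; inactive = the rest.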
measure.name: fluorescence slope

Exercise: Look up fluorescence slope for this molecule: Cn1c(=O)c2c(nc(N3CCCCC3)n2CCSc2nc3ccccc3o2)n(C)c1=O
Solution: 0.00597 (inactive)

Exercise: Look up fluorescence slope for this molecule: CC(C(=O)NCCCN1CCOCC1)n1cccc1C(=O)c1ccccc1 (stereo not drawn)
Solution: 0.00579 (inactive)

Exercise: Look up fluorescence slope for this molecule: O=C(Cn1c(=O)[nH]c2ccsc2c1=O)NC1CCCCCC1
Solution: 0.0062 (inactive)

Exercise: Look up fluorescence slope for this molecule: CCN(c1ccccc1)S(=O)(=O)c1ccc(F)cc1C
Solution: 0.00509 (inactive)

Exercise: Look up fluorescence slope for this molecule: CC1c2nc3ccccc3n2C(CC(=O)NCc2ccccn2)C(=O)N1Cc1ccccc1 (stereo not drawn)
Solution: 0.0053 (inactive)

Exercise: Look up fluorescence slope for this molecule: CNC(=O)CC(C(=O)O)c1ccc(OCC(C)C)cc1 (stereo not drawn)
Solution: 0.00333 (inactive)

Exercise: Look up fluorescence slope for this molecule: O=C(NC12CC3CC(CC(C3)C1)C2)C1CCCN1C(=O)NC1CCCCC1 (stereo not drawn)
Solution: 0.00682 (inactive)

Exercise: Look up fluorescence slope for this molecule: CCc1nnc(NC(=O)C2CCN(c3nccc(C)n3)CC2)s1
Solution: 0.00544 (inactive)

Exercise: Look up fluorescence slope for this molecule: O=c1c2ccccc2nnn1CSc1nc2cc(Cl)ccc2c(=O)n1Cc1ccco1
Solution: 0.00813 (inactive)

Exercise: Look up fluorescence slope for this molecule: Nc1nc(C2C(=O)CCCC2=O)cs1
Solution: 0.00345 (inactive)

Exercise: Look up fluorescence slope for this molecule: Brc1ccc(C2=Nn3c(nnc3-c3ccncc3)SC2)cc1
Solution: 0.00451 (inactive)

Exercise: Look up fluorescence slope for this molecule: COCCOc1nc2ccccc2nc1C
Solution: 0.00668 (inactive)

Exercise: Look up fluorescence slope for this molecule: Cc1cccn2cc(-c3ccccc3)nc12
Solution: 0.00519 (inactive)

---

- test.target: Voltage-gated potassium channel subunit beta-2 (Rattus norvegicus)
- assay: enhancers of rat Kvbeta2 NADPH turnover – biochemical, NADPH fluorescence, primary screen (AID 623);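 also: fluorescence intensity change per second fitted from 20 to 320 s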
- run.parameters: Recombinant KvBeta, NADPH fluorescence decrease slope, 10 min; at 10 µM; stronger effect = lower value
measure.name: NADPH fluorescence slope
Kindly provide the number alone.

Exercise: Look up NADPH fluorescence slope for this compound: N#CC(C(=O)Nc1ccccc1)=C1CCCCC1
Solution: -4.4e-05

Exercise: Look up NADPH fluorescence slope for this compound: O=C(Cn1nnc(-c2cccc(C(F)(F)F)c2)n1)NC(=O)NCc1ccco1
Solution: -0.000353

Exercise: Look up NADPH fluorescence slope for this compound: CCOC(=O)C1CCCN(c2nc3ccccc3nc2C(C#N)C(=O)NCc2ccccc2)C1 (stereo not given)
Solution: -2.8e-05

Exercise: Look up NADPH fluorescence slope for this compound: O=C(Cc1ccc(Br)cc1)N1CCCCCC1
Solution: 1.8e-05

Exercise: Look up NADPH fluorescence slope for this compound: O=C(c1nc2n(n1)C(c1ccc(Cl)cc1)C=C(c1ccccc1)N2)N1CCOCC1 (stereo not given)
Solution: -1.6e-06

Exercise: Look up NADPH fluorescence slope for this compound: Cc1cc(=O)[nH]c2c1cnn2Cc1ccccc1
Solution: -6.1e-05

Exercise: Look up NADPH fluorescence slope for this compound: Cc1ccc(Cn2c(C)nc3c(c2=O)c2nc4ccccc4nc2n3Cc2ccco2)cc1
Solution: -5.9e-05

Exercise: Look up NADPH fluorescence slope for this compound: CCCOc1ccc(C2c3c(oc4ccccc4c3=O)C(=O)N2CCCN2CCOCC2)cc1 (stereo not given)
Solution: -1.1e-05

Exercise: Look up NADPH fluorescence slope for this compound: COc1ccc(CCNC(=O)c2cc(-c3cc(C)c(C)cc3O)n[nH]2)cc1OC
Solution: -0.000364

Exercise: Look up NADPH fluorescence slope for this compound: COc1ccc(CCNS(=O)(=O)c2ccc(C(=O)NCc3ccco3)cc2)cc1OC
Solution: 2.6e-05

Exercise: Look up NADPH fluorescence slope for this compound: COc1ccc(OC(C)C(=O)N2CC(C)OC(C)C2)cc1 (stereo not given)
Solution: 1.5e-06

Exercise: Look up NADPH fluorescence slope for this compound: O=C(Oc1oc(-c2ccco2)nc1C=Nc1ccccc1)c1ccoc1
Solution: -4.5e-05

Exercise: Look up NADPH fluorescence slope for this compound: Cn1c(=O)[nH]c(=O)c2c1nc(N1CCNCC1)n2Cc1cccc2ccccc12
Solution: -5.5e-05

Exercise: Look up NADPH fluorescence slope for this compound: COCCN1C(=O)C(=O)/C(=C(/O)c2cccc(S(=O)(=O)N(C)C)c2)C12C(=O)N(C)c1ccccc12 (stereo not given)
Solution: -5e-05

Exercise: Look up NADPH fluorescence slope for this compound: CC(=O)[C@@]1(O)CC[C@H]2[C@@H]3C[C@H](C)C4=CC(=O)C=C[C@]4(C)[C@@]3(F)[C@@H](O)C[C@@]21C
Solution: -5e-05

Exercise: Look up NADPH fluorescence slope for this compound: Cc1nc(CNS(=O)(=O)c2ccc3c(c2)OCCO3)cs1
Solution: -2.7e-05

Exercise: Look up NADPH fluorescence slope for this compound: O=C(CSc1nc2[nH]ncc2c(=O)n1-c1ccccc1Br)NCc1ccco1
Solution: -3.1e-05

Exercise: Look up NADPH fluorescence slope for this compound: Cc1cn([C@H]2C=C[C@@H](CO)O2)c(=O)[nH]c1=O
Solution: 2.9e-05

Exercise: Look up NADPH fluorescence slope for this compound: CN1Cc2c(N)cccc2C(c2ccccc2)C1 (stereo not given)
Solution: -5.7e-05

Exercise: Look up NADPH fluorescence slope for this compound: O=C(Cn1cnc2c(nnn2-c2ccc(F)cc2)c1=O)NCc1ccco1
Solution: -4.4e-06
